System: DLD1
Experiment: cell viability (CellTiter-Glo) relative to plate median (fraction of plate median); higher = more viable cells
Settings: 5 µM; treatment time 24 h; reporter: 7TFP

# compound, cell viability
records = [
    ("C[C@H](N)[C@H](O)c1ccc(O)c(O)c1", 0.971),
    ("CC(=O)O[C@@H]1C[C@H]2C(C)(C)C(=O)C=C[C@]2(C)[C@H]2CC[C@]3(C)C(=CC(=O)O[C@H]3c3ccoc3)[C@@]21C", 0.99),
    ("COc1cc(OC)c(OC)cc1C=O", 0.981),
    ("C[C@@H](CO)NC(=O)[C@@H]1C=C2c3cccc4[nH]cc(c34)C[C@H]2N(C)C1", 0.983),
    ("Oc1ccc(Cl)cc1", 1.06),
    ("COc1cc([C@@H]2c3cc4c(cc3[C@H](OC(C)=O)[C@H]3COC(=O)[C@H]23)OCO4)cc(OC)c1OC", 0.91),
    ("COc1cc2c(c(OC)c1OC)-c1ccc(OC)c(=O)cc1[C@@H](NC(C)=O)CC2", 1.1),
    ("Cc1ncc(CNC(=O)N(CCCl)N=O)c(N)n1", 1.02),
    ("COP(=S)(OC)Oc1ccc(Sc2ccc(OP(=S)(OC)OC)cc2)cc1", 1.02),
    ("COC(=O)C(c1ccccc1)C1CCCCN1 (configuration not stated)", 1.02),
    ("COC1=C[C@]23CCCN2CCc2cc4c(cc2[C@@H]3[C@@H]1O)OCO4", 0.98),
    ("COc1ccc(OC)c(C(O)C(C)N)c1 (configuration not stated)", 0.976),
]

Numbers sourced from the supplement of paper PMC6522484.
